Molecular target: T1, tail-chimeric peptide IhfA3-IhfB2NTHI (nontypeable Haemophilus influenzae …)
T1 construct: also called IHF(NTHI) tail chimeric peptide; IHFNTHI tail chimeric peptide
T1 peptide: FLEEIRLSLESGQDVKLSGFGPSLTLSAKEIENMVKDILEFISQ
Experiment: SPR Biacore 3000, HuMab immobilized, peptide as analyte

# BINDER, koff, s⁻¹
records = [
    ("humanized anti-tail monoclonal antibody, heavy chain SEQ ID NO: 5 and light chain SEQ ID NO: 11 (antibody, V domains shown, also called H10214 (11E7.C7 Humanized HC2) + L10214 (11E7.C7 Humanized LC2)) VH: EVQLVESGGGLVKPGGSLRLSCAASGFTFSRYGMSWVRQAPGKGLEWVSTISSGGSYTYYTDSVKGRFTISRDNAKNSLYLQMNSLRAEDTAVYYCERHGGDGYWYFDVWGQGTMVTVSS VL: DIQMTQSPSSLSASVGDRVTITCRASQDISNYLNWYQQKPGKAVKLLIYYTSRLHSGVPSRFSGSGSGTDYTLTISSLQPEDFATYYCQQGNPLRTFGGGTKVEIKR", 0.00027),
    ("humanized anti-tail monoclonal antibody, heavy chain SEQ ID NO: 5 and light chain SEQ ID NO: 12 (antibody, V domains shown, also called H10214 (11E7.C7 Humanized HC2) + L10215 (11E7.C7 Humanized LC3)) VH: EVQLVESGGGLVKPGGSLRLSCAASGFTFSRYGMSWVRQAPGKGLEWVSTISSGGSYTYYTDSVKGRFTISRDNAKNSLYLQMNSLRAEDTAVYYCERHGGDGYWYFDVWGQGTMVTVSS VL: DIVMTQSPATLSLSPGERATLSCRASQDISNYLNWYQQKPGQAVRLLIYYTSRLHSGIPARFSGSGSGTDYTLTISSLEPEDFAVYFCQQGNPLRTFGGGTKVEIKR", 0.00044),
    ("humanized anti-tail monoclonal antibody, heavy chain SEQ ID NO: 5 and light chain SEQ ID NO: 10 (antibody, V domains shown, also called H10214 (11E7.C7 Humanized HC2) + L10213 (11E7.C7 Humanized LC1)) VH: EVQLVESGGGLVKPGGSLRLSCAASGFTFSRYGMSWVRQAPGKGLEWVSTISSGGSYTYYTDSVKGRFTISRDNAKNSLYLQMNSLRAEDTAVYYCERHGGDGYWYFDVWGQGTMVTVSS VL: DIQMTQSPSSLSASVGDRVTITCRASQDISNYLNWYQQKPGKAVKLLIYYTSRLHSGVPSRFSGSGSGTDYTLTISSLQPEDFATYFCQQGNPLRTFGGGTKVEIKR", 0.00029),
]
